Hello, the source for this data is patent US20240002393A1, in case you need it.

Recorded measurements of Efficacy (GABA)%, one per entry
Molecular target: h-GABA-A α2β2γ1 (Homo sapiens (Human), UniProt P47869+Q8N1C3)
Assay: Two-electrode voltage clamp electrophysiology in Xenopus oocytes expressing GABAA receptors
Assay type: cell-based
Conditions: % modulation of GABA EC20 = 100*(Fold increase−1), compound at 30-fold Ki
Procedure: Xenopus laevis oocytes at maturation stages V-VI were used for the expression of cloned mRNA encoding GABAA receptor subunits. Oocytes ready for RNA micro-injection were bought from Ecocyte, Castrop-Rauxel, Germany and stored in modified Barth's medium (composition in mM: NaCl 88, KCl 1, NaHCO3 2.4, HEPES 10, MgSO4 0.82, CaNO3 0.33, CaCl2 0.33, pH=7.5) at 20° C. until the experiment. […]
OBSERVABLE: Efficacy (GABA)% (%)

>>> test_result("C[C@@H]1N=C(c2ncccc2F)c2c(ccc(Cl)c2Cl)-n2c(C3CC3)nnc21")
109
>>> test_result("Cc1ccc2c(c1Cl)C(c1c(F)cccc1F)=N[C@@H](C)c1nnc(C)n1-2")
148
>>> test_result("Cc1ccc(-c2nnc3n2-c2ccc(Cl)c(Cl)c2C(c2c(F)cccc2F)=N[C@H]3C)nn1")
80
>>> test_result("Cc1ccc(-c2nnc3n2-c2ccc(Cl)c(Br)c2C(c2c(F)cccc2F)=N[C@H]3C)nn1")
105
>>> test_result("C[C@@H]1N=C(c2ccccc2F)c2c(ccc(Br)c2Cl)-n2c(-c3cccnn3)nnc21")
105
>>> test_result("OC1N=C(c2ccccc2F)c2c(ccc(Br)c2Cl)-n2c(-c3cccnn3)nnc21 (centres unmarked)")
108
>>> test_result("C[C@@H]1N=C(c2c(F)cccc2F)c2c(ccc(Cl)c2Cl)-n2c1n[nH]c2=O")
74
>>> test_result("OC1N=C(c2c(F)cccc2F)c2c(ccc(Br)c2Cl)-n2cnnc21 (centres unmarked)")
74
